Sourced from ChEMBL document CHEMBL4602617

biological target: Fibroblast growth factor receptor 3 (Homo sapiens, UniProt P22607); test: Inhibition of recombinant His-tagged human FGFR3 (399 to 806 residues) cytoplasmic domain expressed in baculovirus expression system using Tyr 04 peptide as substrate after 1 hr in presence of ATP by Z'-LYTE assay
Sequence (P22607 whole entry, the tested form may be a part): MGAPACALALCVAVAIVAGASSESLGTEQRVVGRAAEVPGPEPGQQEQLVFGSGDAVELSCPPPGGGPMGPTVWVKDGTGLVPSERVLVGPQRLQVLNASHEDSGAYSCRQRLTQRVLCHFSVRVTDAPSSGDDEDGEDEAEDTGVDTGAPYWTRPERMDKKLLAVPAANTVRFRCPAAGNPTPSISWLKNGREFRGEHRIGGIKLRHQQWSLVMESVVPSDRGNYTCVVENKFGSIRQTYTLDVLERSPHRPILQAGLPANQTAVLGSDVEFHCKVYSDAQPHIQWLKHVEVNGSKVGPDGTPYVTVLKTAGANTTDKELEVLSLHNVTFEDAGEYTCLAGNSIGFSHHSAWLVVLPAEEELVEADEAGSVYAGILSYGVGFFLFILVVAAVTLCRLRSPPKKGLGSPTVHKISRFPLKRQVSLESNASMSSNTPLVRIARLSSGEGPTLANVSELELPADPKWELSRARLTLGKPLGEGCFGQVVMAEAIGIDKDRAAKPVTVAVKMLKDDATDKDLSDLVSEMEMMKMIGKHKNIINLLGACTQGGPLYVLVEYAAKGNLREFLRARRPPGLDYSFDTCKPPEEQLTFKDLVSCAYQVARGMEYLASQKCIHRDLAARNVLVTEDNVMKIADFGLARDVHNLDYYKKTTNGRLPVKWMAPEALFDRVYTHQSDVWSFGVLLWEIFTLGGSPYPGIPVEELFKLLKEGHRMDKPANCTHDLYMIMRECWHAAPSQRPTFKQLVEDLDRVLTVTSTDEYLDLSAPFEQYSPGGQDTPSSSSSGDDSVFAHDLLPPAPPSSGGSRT
Measurement Name: IC50

# IC50 (compound: C[C@@H]1C[C@H]1C(=O)N1CCN(c2cnc(C#N)c(-c3cnn(C)c3)n2)C[C@H]1C ) is > 100 µM

* * *

species on record: Homo sapiens; test: Selectivity index, ratio IC50 for inhibition of recombinant human N-terminal His6-tagged full-length p120gamma expressed in Sf21 insect cells to ratio IC50 for inhibition of recombinant human full-length N-terminal GST-tagged p110delta/untagged full-length p85alpha expressed in baculovirus infected Sf21 cells
In this section we review reported Ratio IC50 values for a set of molecules.

C[C@@H]1C[C@H]1C(=O)N1CCN(c2cnc(C#N)c(-c3cnn(C)c3)n2)C[C@H]1C ... 847

The molecule Cn1cc(-c2ncc(C#N)c(N3C[C@@H]4C[C@H]3CN4S(=O)(=O)C3CC3)n2)cn1 showed Ratio IC50 equal to 10

Ratio IC50 measured on Cn1cc(-c2ncc(C#N)c(N3CCN(c4cccc(F)c4)C(C)(C)C3)n2)cn1 = > 8

Ratio IC50 recorded for this molecule, CC1CC1C(=O)N1CCN(c2nc(-c3cnn(C)c3)ncc2C#N)C[C@H]1C (mixture of isomers) , is 159

Data point: Cn1cc(-c2ncc(C#N)c(N3C[C@@H]4C[C@H]3CN4c3cccc(F)c3)n2)cn1 ; Ratio IC50 = > 407

Reported Ratio IC50 of N#Cc1cnc(-c2cccnc2)nc1N1C[C@@H]2C[C@H]1CN2c1cccc(Cl)c1 : > 105

The molecule listed as Cn1cc(-c2ncc(C#N)c(N3CC4CCC(C3)N4c3cccc(F)c3)n2)cn1 shows Ratio IC50 equal to > 12

Record C[C@@H]1C[C@H]1C(=O)N1CCN(c2nc(-c3cnn(C)c3)ncc2C#N)C[C@H]1C . Reported Ratio IC50: > 394

Looking up C[C@@H]1CN(c2nc(-c3cnn(C)c3)ncc2C#N)CCN1C(=O)C1(C)CC1 , I found its Ratio IC50 recorded as > 12
